Tested On: Neuronal acetylcholine receptor; alpha4/beta4 (Rattus norvegicus, UniProt P09483+P12392)
Sequence (P09483 whole entry): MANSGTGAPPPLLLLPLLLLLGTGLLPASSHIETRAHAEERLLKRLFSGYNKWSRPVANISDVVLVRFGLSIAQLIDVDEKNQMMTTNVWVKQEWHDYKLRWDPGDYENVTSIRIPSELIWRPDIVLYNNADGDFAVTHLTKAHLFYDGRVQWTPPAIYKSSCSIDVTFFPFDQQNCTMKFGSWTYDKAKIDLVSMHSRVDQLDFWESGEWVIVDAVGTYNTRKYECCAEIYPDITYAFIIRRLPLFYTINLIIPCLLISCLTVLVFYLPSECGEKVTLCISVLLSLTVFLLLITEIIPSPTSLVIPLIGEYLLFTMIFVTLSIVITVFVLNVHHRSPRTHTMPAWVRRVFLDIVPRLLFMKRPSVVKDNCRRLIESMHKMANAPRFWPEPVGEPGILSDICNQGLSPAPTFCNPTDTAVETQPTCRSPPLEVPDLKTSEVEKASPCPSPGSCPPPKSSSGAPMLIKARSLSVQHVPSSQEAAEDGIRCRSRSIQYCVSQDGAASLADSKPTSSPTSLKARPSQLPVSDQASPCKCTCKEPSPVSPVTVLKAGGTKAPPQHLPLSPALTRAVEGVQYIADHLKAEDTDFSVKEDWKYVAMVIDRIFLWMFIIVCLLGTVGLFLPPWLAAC
Sequence (P12392 whole entry): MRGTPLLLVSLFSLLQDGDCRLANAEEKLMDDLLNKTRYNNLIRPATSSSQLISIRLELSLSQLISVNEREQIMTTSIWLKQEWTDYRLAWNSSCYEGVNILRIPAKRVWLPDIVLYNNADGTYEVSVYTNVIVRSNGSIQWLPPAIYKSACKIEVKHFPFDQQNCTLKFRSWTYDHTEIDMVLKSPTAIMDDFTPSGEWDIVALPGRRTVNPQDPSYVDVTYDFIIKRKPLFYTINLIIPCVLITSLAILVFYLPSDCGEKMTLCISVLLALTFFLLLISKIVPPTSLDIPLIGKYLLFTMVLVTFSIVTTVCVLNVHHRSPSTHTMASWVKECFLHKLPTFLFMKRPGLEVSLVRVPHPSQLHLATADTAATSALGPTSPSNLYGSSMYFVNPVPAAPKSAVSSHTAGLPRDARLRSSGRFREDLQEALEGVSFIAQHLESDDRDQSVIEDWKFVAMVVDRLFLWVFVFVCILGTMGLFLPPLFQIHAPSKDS
Run Description: biochemical
Description: Displacement of [3H]epibatidine from rat recombinant alpha4beta4 nAChR expressed in HEK293 cells after 4 hrs by scintillation counting analysis
Assay Endpoint: pKi
Quick note: pKi means taking -log10 of the concentration in moles per liter.

Give the reported pKi for C[C@H](CCOc1nc(Br)cn1C)N(C)C (system: Neuronal acetylcholine receptor; alpha4/beta4 (Rattus norvegicus, UniProt P09483+P12392)).
4.30

What is its pKi for Neuronal acetylcholine receptor; alpha4/beta4 (Rattus norvegicus, UniProt P09483+P12392)? Entry: C[C@H](CCOc1cnccn1)N(C)C
5.08

API: value(readout=pKi, system=Neuronal acetylcholine receptor; alpha4/beta4 (Rattus norvegicus, UniProt P09483+P12392)) for record C[C@H](CCOc1nccs1)N(C)C
5.74

Give the reported pKi for Cc1cn(C)c(OCC[C@@H](C)N(C)C)n1 (system: Neuronal acetylcholine receptor; alpha4/beta4 (Rattus norvegicus, UniProt P09483+P12392)).
4.30

// fetch Neuronal acetylcholine receptor; alpha4/beta4 (Rattus norvegicus, UniProt P09483+P12392) pKi for C[C@H](CCOc1cccnc1)N(C)C
5.08

Lab note: need pKi for C[C@H](CCOC(=O)N(C)C)N(C)C on Neuronal acetylcholine receptor; alpha4/beta4 (Rattus norvegicus, UniProt P09483+P12392), anyone have it?
6.82

Param readout = pKi; param system = Neuronal acetylcholine receptor; alpha4/beta4 (Rattus norvegicus, UniProt P09483+P12392); param query = C[C@H](CCOn1cccn1)N(C)C ; response: value
4.96
